Test system: Staphylococcus aureus
Test: Antibacterial activity against methicillin-resistant Staphylococcus aureus measured after 24 hrs by susceptibility assay
Format: functional
MEASURED QUANTITY: MIC

Record summary for CC1(C)CC[C@]2(C(=O)NS(=O)(=O)c3ccccc3)CC[C@]3(C)C(=CC[C@@H]4[C@@]5(C)Cc6c([nH]c7ccc(C(=O)O)cc67)C(C)(C)[C@@H]5CC[C@]43C)[C@@H]2C1 : reported MIC = 1 µM

----------
Test system: Staphylococcus aureus
Assay: Antibacterial activity against methicillin-resistant Staphylococcus aureus measured after 24 hrs by susceptibility assay
Assay type: functional
MEASURED QUANTITY: MIC (µM)
Response body: numeric value in µM, unit text excluded.

See these solved cases before continuing.
COc1ccc(S(=O)(=O)NC(=O)[C@]23CCC(C)(C)C[C@H]2C2=CC[C@@H]4[C@@]5(C)Cc6c([nH]c7cc(C(=O)O)ccc67)C(C)(C)[C@@H]5CC[C@@]4(C)[C@]2(C)CC3)cc1 | 4
Cc1ccc(S(=O)(=O)NC(=O)[C@]23CCC(C)(C)C[C@H]2C2=CC[C@@H]4[C@@]5(C)Cc6c([nH]c7ccc(C(=O)O)cc67)C(C)(C)[C@@H]5CC[C@@]4(C)[C@]2(C)CC3)cc1 | 2

Recorded MIC (molecule CC(=O)c1ccc2c3c([nH]c2c1)C(C)(C)[C@@H]1CC[C@]2(C)[C@H](CC=C4[C@@H]5CC(C)(C)CC[C@]5(C(=O)NS(=O)(=O)c5ccccc5)CC[C@]42C)[C@@]1(C)C3 ): 2

GET /value?item= Cc1ccc(S(=O)(=O)NC(=O)[C@]23CCC(C)(C)C[C@H]2C2=CC[C@@H]4[C@@]5(C)Cc6c([nH]c7cccc(C(=O)O)c67)C(C)(C)[C@@H]5CC[C@@]4(C)[C@]2(C)CC3)cc1 &field=MIC returns 4

The recorded MIC for COc1cccc(OC)c1C(=O)N[C@@H]1C(=O)N2[C@@H]1SC(C)(C)[C@@H]2C(=O)O is 256

Input CC1(C)CC[C@]2(C(=O)NS(=O)(=O)c3ccc(Cl)cc3)CC[C@]3(C)C(=CC[C@@H]4[C@@]5(C)CCC(=O)C(C)(C)[C@@H]5CC[C@]43C)[C@@H]2C1 . Output MIC: 32

For CC1(C)CC[C@]2(C(=O)NS(=O)(=O)c3ccc(C(=O)O)cc3)CC[C@]3(C)C(=CC[C@@H]4[C@@]5(C)Cc6c([nH]c7cccc(C(=O)O)c67)C(C)(C)[C@@H]5CC[C@]43C)[C@@H]2C1 the molecule record lists MIC as 256

The molecule listed as CC1(C)CC[C@]2(C(=O)NS(=O)(=O)c3ccc(Cl)cc3)CC[C@]3(C)C(=CC[C@@H]4[C@@]5(C)Cc6c([nH]c7ccc(C(=O)O)cc67)C(C)(C)[C@@H]5CC[C@]43C)[C@@H]2C1 shows MIC equal to 1

----------
System: Staphylococcus aureus
Assay: Antibacterial activity against methicillin-resistant Staphylococcus aureus measured after 24 hrs by susceptibility assay
Type: functional
In this section we review reported MIC values for a set of compounds.
Give the value, in units of µM, as a plain number.

Here are 5 compounds together with their reported answers.
CC1(C)CC[C@]2(C(=O)NS(=O)(=O)c3ccc(C(=O)O)cc3)CC[C@]3(C)C(=CC[C@@H]4[C@@]5(C)CCC(=O)C(C)(C)[C@@H]5CC[C@]43C)[C@@H]2C1 | 256
Cc1ccc(S(=O)(=O)NC(=O)[C@]23CCC(C)(C)C[C@H]2C2=CC[C@@H]4[C@@]5(C)Cc6c([nH]c7cc(C(=O)O)ccc67)C(C)(C)[C@@H]5CC[C@@]4(C)[C@]2(C)CC3)cc1 | 2
CC1(C)CC[C@]2(C(=O)NS(=O)(=O)c3ccc(Cl)cc3)CC[C@]3(C)C(=CC[C@@H]4[C@@]5(C)Cc6c([nH]c7c(C(=O)O)cccc67)C(C)(C)[C@@H]5CC[C@]43C)[C@@H]2C1 | 1
CN[C@H](CC(C)C)C(=O)N[C@H]1C(=O)N[C@@H](CC(N)=O)C(=O)N[C@H]2C(=O)N[C@H]3C(=O)N[C@H](C(=O)N[C@H](C(=O)O)c4cc(O)cc(O)c4-c4cc3ccc4O)[C@H](O)c3ccc(c(Cl)c3)Oc3cc2cc(c3O[C@@H]2O[C@H](CO)[C@@H](O)[C@H](O)[C@H]2O[C@H]2C[C@](C)(N)[C@H](O)[C@H](C)O2)Oc2ccc(cc2Cl)[C@H]1O | 0.5
CC1(C)CC[C@]2(C(=O)NS(=O)(=O)c3ccc(Cl)cc3)CC[C@]3(C)C(=CC[C@@H]4[C@@]5(C)Cc6c([nH]c7cccc(C(=O)O)c67)C(C)(C)[C@@H]5CC[C@]43C)[C@@H]2C1 | 2

// recorded MIC for COc1ccc(S(=O)(=O)NC(=O)[C@]23CCC(C)(C)C[C@H]2C2=CC[C@@H]4[C@@]5(C)Cc6c([nH]c7cccc(C(=O)O)c67)C(C)(C)[C@@H]5CC[C@@]4(C)[C@]2(C)CC3)cc1 : 4

Entry CC1(C)CC[C@]2(C(=O)NS(=O)(=O)c3ccc(C(=O)O)cc3)CC[C@]3(C)C(=CC[C@@H]4[C@@]5(C)Cc6c([nH]c7c(C(=O)O)cccc67)C(C)(C)[C@@H]5CC[C@]43C)[C@@H]2C1 , MIC reported as 1

The measured MIC associated with Cc1ccc(S(=O)(=O)NC(=O)[C@]23CCC(C)(C)C[C@H]2C2=CC[C@@H]4[C@@]5(C)Cc6c([nH]c7c(C(=O)O)cccc67)C(C)(C)[C@@H]5CC[C@@]4(C)[C@]2(C)CC3)cc1 reads 2

Record CC1(C)CC[C@]2(C(=O)NS(=O)(=O)c3ccc(C(=O)O)cc3)CC[C@]3(C)C(=CC[C@@H]4[C@@]5(C)Cc6c([nH]c7ccc(C(=O)O)cc67)C(C)(C)[C@@H]5CC[C@]43C)[C@@H]2C1 , field MIC: 64

Record summary for CC1(C)CC[C@]2(C(=O)Nc3ccc(-c4ccccc4)cc3)CC[C@]3(C)C(=CC[C@@H]4[C@@]5(C)Cc6c([nH]c7cccc(C(=O)O)c67)C(C)(C)[C@@H]5CC[C@]43C)[C@@H]2C1 : reported MIC = 256

// field: MIC; key: COc1ccc(S(=O)(=O)NC(=O)[C@]23CCC(C)(C)C[C@H]2C2=CC[C@@H]4[C@@]5(C)Cc6c([nH]c7c(C(=O)O)cccc67)C(C)(C)[C@@H]5CC[C@@]4(C)[C@]2(C)CC3)cc1 ; value = 4

MIC in this record for CC(=O)c1cccc2[nH]c3c(c12)C[C@]1(C)[C@H]2CC=C4[C@@H]5CC(C)(C)CC[C@]5(C(=O)NS(=O)(=O)c5ccccc5)CC[C@@]4(C)[C@]2(C)CC[C@H]1C3(C)C : 4

----------
System: Staphylococcus aureus
Assay: Antibacterial activity against methicillin-resistant Staphylococcus aureus measured after 24 hrs by susceptibility assay
Format: functional
MEASURED QUANTITY: MIC (µM)
Use µM as the unit, but write only the number.

# MIC (compound: CN1CCN(C(=O)[C@]23CCC(C)(C)C[C@H]2C2=CC[C@@H]4[C@@]5(C)Cc6c([nH]c7cc(C(=O)O)ccc67)C(C)(C)[C@@H]5CC[C@@]4(C)[C@]2(C)CC3)CC1 ) is 256

For CC1(C)CC[C@]2(C(=O)NS(=O)(=O)c3ccc(C(=O)O)cc3)CC[C@]3(C)C(=CC[C@@H]4[C@@]5(C)Cc6c([nH]c7cc(C(=O)O)ccc67)C(C)(C)[C@@H]5CC[C@]43C)[C@@H]2C1 the compound record lists MIC as 2

The recorded MIC for entry CC1(C)CC[C@]2(C(=O)NS(=O)(=O)c3ccc(Cl)cc3)CC[C@]3(C)C(=CC[C@@H]4[C@@]5(C)Cc6c([nH]c7cc(C(=O)O)ccc67)C(C)(C)[C@@H]5CC[C@]43C)[C@@H]2C1 equals 2

----------
Tested on: Staphylococcus aureus
Assay: Antibacterial activity against Staphylococcus aureus ATCC 6538 measured after 24 hrs by susceptibility assay
Format: functional
Entries annotated with measured MIC

Worked cases, MIC given:
CC1(C)CC[C@]2(C(=O)Nc3ccc(-c4ccccc4)cc3)CC[C@]3(C)C(=CC[C@@H]4[C@@]5(C)CCC(=O)C(C)(C)[C@@H]5CC[C@]43C)[C@@H]2C1 | > 256 µM
COc1ccc(S(=O)(=O)NC(=O)[C@]23CCC(C)(C)C[C@H]2C2=CC[C@@H]4[C@@]5(C)CCC(=O)C(C)(C)[C@@H]5CC[C@@]4(C)[C@]2(C)CC3)cc1 | > 256 µM

# evaluate next
Lab book: MIC of CN1CCN(C(=O)[C@]23CCC(C)(C)C[C@H]2C2=CC[C@@H]4[C@@]5(C)Cc6c([nH]c7cc(C(=O)O)ccc67)C(C)(C)[C@@H]5CC[C@@]4(C)[C@]2(C)CC3)CC1 noted as > 256 µM
